target-under-test: Melanin-concentrating hormone receptor 1 (Homo sapiens)
Sequence (Q99705 whole entry): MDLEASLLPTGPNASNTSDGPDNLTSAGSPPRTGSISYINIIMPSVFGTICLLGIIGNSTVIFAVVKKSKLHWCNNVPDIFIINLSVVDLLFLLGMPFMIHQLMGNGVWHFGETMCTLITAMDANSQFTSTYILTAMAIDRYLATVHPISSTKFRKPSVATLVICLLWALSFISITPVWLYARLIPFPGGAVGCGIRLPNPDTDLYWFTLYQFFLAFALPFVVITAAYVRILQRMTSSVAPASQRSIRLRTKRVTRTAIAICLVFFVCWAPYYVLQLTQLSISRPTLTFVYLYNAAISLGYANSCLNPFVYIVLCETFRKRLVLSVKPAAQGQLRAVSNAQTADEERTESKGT
assay-overview: Displacement of [125I]-MCH from human MCHR1 receptor expressed in CHO-K1 cell membranes after 2 hrs by scintillation proximity assay
pIC50: −log10 of the molar value.
measure-name: pIC50

> print(dat)
                                   molecule                         target.under.test  value.reported
1  CN(C)CC1CCc2cc(NC(=O)Nc3ccc(Oc4ccccc4)cc3)ccc2C1 (stereo unspecified)  Melanin-concentrating hormone receptor 1 (Homo sapiens)            8.00
